- System: Escherichia coli
- experiment_notes: Antibacterial activity against Escherichia coli at 80 ug/ml after 24 hrs by Oxford cup assay
- Type: functional
- reported_conditions: read-out: IZ
Parameter: zone of inhibition at 80 µg/mL. Scope: all listed entries.

Example compounds with recorded zone of inhibition at 80 µg/mL:
query_smiles | zone of inhibition at 80 µg/mL
C=C[C@]1(C)C[C@@H](OC(=O)CSC(C)(C)CNC(=O)[C@H](N)C(C)C)[C@]2(C)[C@H](C)CC[C@]3(CCC(=O)[C@H]32)[C@@H](C)[C@@H]1O | 19.5 mm
C=C[C@]1(C)C[C@@H](OC(=O)CSC(C)(C)CNC(=O)c2ccccc2N)[C@]2(C)[C@H](C)CC[C@]3(CCC(=O)[C@H]32)[C@@H](C)[C@@H]1O | 13.1 mm
C=C[C@]1(C)C[C@@H](OC(=O)CSC(C)(C)CNC(=O)c2ccccc2C)[C@]2(C)[C@H](C)CC[C@]3(CCC(=O)[C@H]32)[C@@H](C)[C@@H]1O | 12.1 mm
C=C[C@]1(C)C[C@@H](OC(=O)CSC(C)(C)CNC(=O)c2ccccc2Cl)[C@]2(C)[C@H](C)CC[C@]3(CCC(=O)[C@H]32)[C@@H](C)[C@@H]1O | 11.3 mm

Pending compound:
Query block: Using the record for `C=C[C@]1(C)C[C@@H](OC(=O)CSC(C)(C)CNC(=O)c2cc3ccccc3[nH]2)[C@]2(C)[C@H](C)CC[C@]3(CCC(=O)[C@H]32)[C@@H](C)[C@@H]1O` , report its zone of inhibition at 80 µg/mL.
Result block: 8.87 mm

====

- System: Staphylococcus aureus
- experiment_notes: Antibacterial activity against methicillin-resistant Staphylococcus aureus at 80 ug/ml after 24 hrs by Oxford cup assay
- Type: functional
- reported_conditions: read-out: IZ
Label scheme for zone of inhibition at 80 µg/mL: lower than 10 mm is criterion not met, 10 mm and above is criterion met.

Worked examples follow.
molecule | answer_label
C=C[C@]1(C)C[C@@H](OC(=O)CSC(C)(C)CNC(=O)[C@H](N)C(C)C)[C@]2(C)[C@H](C)CC[C@]3(CCC(=O)[C@H]32)[C@@H](C)[C@@H]1O [VALNEMULIN] | criterion met
C=C[C@]1(C)C[C@@H](OC(=O)CSC(C)(C)CNC(=O)OCc2ccccc2)[C@]2(C)[C@H](C)CC[C@]3(CCC(=O)[C@H]32)[C@@H](C)[C@@H]1O | criterion met
C=C[C@]1(C)C[C@@H](OC(=O)CSCCN(CC)CC)[C@]2(C)[C@H](C)CC[C@]3(CCC(=O)[C@H]32)[C@@H](C)[C@@H]1O [TIAMULIN] | criterion met
C=C[C@]1(C)C[C@@H](OC(=O)CSC(C)(C)CNC(=O)c2ccccc2N)[C@]2(C)[C@H](C)CC[C@]3(CCC(=O)[C@H]32)[C@@H](C)[C@@H]1O | criterion met
C=C[C@]1(C)C[C@@H](OC(=O)CSC(C)(C)CNC(=O)c2cc3ccccc3[nH]2)[C@]2(C)[C@H](C)CC[C@]3(CCC(=O)[C@H]32)[C@@H](C)[C@@H]1O | criterion not met
C=C[C@]1(C)C[C@@H](OC(=O)CSC(C)(C)CNC(=O)c2ccc(C)cc2)[C@]2(C)[C@H](C)CC[C@]3(CCC(=O)[C@H]32)[C@@H](C)[C@@H]1O | criterion met
C=C[C@]1(C)C[C@@H](OC(=O)CSC(C)(C)CNC(=O)c2ccccc2C)[C@]2(C)[C@H](C)CC[C@]3(CCC(=O)[C@H]32)[C@@H](C)[C@@H]1O | criterion met
C=C[C@]1(C)C[C@@H](OC(=O)CSC(C)(C)CNC(=O)c2cccc(OC)c2)[C@]2(C)[C@H](C)CC[C@]3(CCC(=O)[C@H]32)[C@@H](C)[C@@H]1O | criterion met

Query block: I'd appreciate it if you could say whether `C=C[C@]1(C)C[C@@H](OC(=O)CSC(C)(C)CNC(=O)c2ccc(Cl)cc2)[C@]2(C)[C@H](C)CC[C@]3(CCC(=O)[C@H]32)[C@@H](C)[C@@H]1O` has zone of inhibition at 80 µg/mL at least equal to 10 mm.
Result block: criterion met

Query block: Please do the same for `C=C[C@]1(C)C[C@@H](OC(=O)CSC(C)(C)CNC(=O)[C@H](N)c2ccccc2)[C@]2(C)[C@H](C)CC[C@]3(CCC(=O)[C@H]32)[C@@H](C)[C@@H]1O` as well.
Result block: criterion not met

Query block: Also need `C=C[C@]1(C)C[C@@H](OC(=O)CSC(C)(C)CNC(=O)c2ccc(N)cc2)[C@]2(C)[C@H](C)CC[C@]3(CCC(=O)[C@H]32)[C@@H](C)[C@@H]1O` , thanks.
Result block: criterion met

Query block: Try the molecule `C=C[C@]1(C)C[C@@H](OC(=O)CSC(C)(C)CNC(=O)c2cccc(Cl)c2)[C@]2(C)[C@H](C)CC[C@]3(CCC(=O)[C@H]32)[C@@H](C)[C@@H]1O`
Result block: criterion met

Hello, the source for this data is ChEMBL document CHEMBL2375359, in case you need it.
